assay: Half life in Sprague-Dawley rat at 50 mg/kg, po administered as single dose measured after 0.08 to 24 hrs post dose by LC/MS/MS method; format: ADME, organism-based; conditions: in vivo
Could you please report measured half-life for the items listed next?
Give bare numbers, in h.

• COc1cc(O)ccc1/C=C/C(=O)c1ccc(O)cc1 [ECHINATIN] = 7.32

Now for the molecule whose half-life we want.
For this molecule ( C=CC(C)(C)c1cc(/C=C/C(=O)c2ccc(O)cc2)c(OC)cc1O [LICOAGROCHACONE A] ), measured half-life is 10.3

---

target: Nuclear factor erythroid 2-related factor 2 (Homo sapiens); assay: Activation of Nrf2 (unknown origin) expressed in human HepG2 cells at 10 uM incubated for 6 hrs by ARE-driven luciferase reporter gene assay relative to untreated control; format: cell-based
assay.endpoint: fold change (FC)
Numbers only.

Worked set:
• CC(C)=CCc1c(O)cc(O)c2c1OC[C@@H](c1ccc3c(c1O)C=CC(C)(C)O3)C2=O = 1.88
• CC1(C)C=Cc2cc(-c3coc4cc(O)ccc4c3=O)c(O)cc2O1 = 2.3
• COc1cc(O)ccc1/C=C/C(=O)c1ccc(O)cc1 [ECHINATIN] = 4.09
• O=c1c(-c2ccc(O)cc2)coc2cc(O)cc(O)c12 = 1.2
• C=CC(C)(C)c1cc(/C=C/C(=O)c2ccc(O)cc2)c(OC)cc1O [LICOAGROCHACONE A] = 4.07

Could you tell me fold change (FC) for each of these molecules? They are listed below.
1. CC(C)=CCc1cc(-c2cc(=O)c3c(O)c(CC=C(C)C)c(O)cc3o2)ccc1O
2. CC(C)=CCc1cc2c(=O)cc(-c3ccc(O)cc3)oc2cc1O
3. O=C(/C=C/c1ccc(O)cc1)c1ccc(O)cc1O
4. CC(C)=CCc1c(O)ccc(-c2coc3cc(O)cc(O)c3c2=O)c1O
5. CC(C)=CCc1c(O)cc2c(c1O)C(=O)[C@H](c1ccc3c(c1O)C=CC(C)(C)O3)CO2
6. COc1ccc(-c2coc3cc(O)ccc3c2=O)cc1

1. 2.98
2. 1.05
3. 4.67
4. 2.49
5. 2.33
6. 2.65

---

target: Nuclear factor erythroid 2-related factor 2 (Homo sapiens) (UniProt Q16236); experiment: Activation of Nrf2 (unknown origin) expressed in human HepG2 cells at 10 uM incubated for 6 hrs by ARE-driven luciferase reporter gene assay relative to untreated control; type: cell-based
Sequence (Q16236 whole entry): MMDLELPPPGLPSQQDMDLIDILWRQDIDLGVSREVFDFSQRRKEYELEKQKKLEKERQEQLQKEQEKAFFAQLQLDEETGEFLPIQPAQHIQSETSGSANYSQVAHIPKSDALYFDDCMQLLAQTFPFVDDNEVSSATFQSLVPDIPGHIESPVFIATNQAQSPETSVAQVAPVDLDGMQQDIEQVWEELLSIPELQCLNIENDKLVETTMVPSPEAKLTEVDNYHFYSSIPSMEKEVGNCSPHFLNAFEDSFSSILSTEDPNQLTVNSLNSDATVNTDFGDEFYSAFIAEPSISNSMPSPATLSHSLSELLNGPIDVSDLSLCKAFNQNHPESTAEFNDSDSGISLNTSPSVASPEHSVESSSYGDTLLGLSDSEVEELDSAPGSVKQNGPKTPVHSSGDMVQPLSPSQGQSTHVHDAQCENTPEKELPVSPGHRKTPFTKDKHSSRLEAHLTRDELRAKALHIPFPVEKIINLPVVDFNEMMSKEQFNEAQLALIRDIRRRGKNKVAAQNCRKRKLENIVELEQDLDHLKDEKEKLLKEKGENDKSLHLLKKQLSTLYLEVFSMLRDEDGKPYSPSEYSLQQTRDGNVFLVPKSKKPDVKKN
For each of the compounds below, state its fold change (FC).

Worked cases, answers included:
* CC(C)=CCc1c(O)cc2occ(-c3cc(O)c4c(c3)C=CC(C)(C)O4)c(=O)c2c1O | 1.51
* CC1(C)C=Cc2cc(-c3coc4cc(O)cc(O)c4c3=O)cc(O)c2O1 | 1.13
* O=C1C[C@@H](c2cc(O)cc(O)c2)Oc2cc(O)ccc21 | 1.54
* CC(C)=CCc1c(O)ccc2c1oc1c3ccc(O)cc3oc(=O)c21 | 1.81

For the 3 compounds below, give their fold change (FC) values.
1. COc1ccc(-c2coc3c(O)c(O)c(CC=C(C)C)cc3c2=O)c(O)c1
2. CC(C)=CCc1c(O)ccc(C(=O)/C=C/c2ccc(O)cc2)c1O
3. CC(C)=CCc1c(O)ccc([C@H]2COc3cc(O)c(CC=C(C)C)c(O)c3C2=O)c1O

1.42
1.91
1.98

Values compiled from ChEMBL document CHEMBL4043194.
